Please go through the items and note down their inhibition of growth at 50 µM.
- Tested on: PC-3
- experimental-details: Growth inhibition of human PC3 cells at 50 uM after 48 hrs by SRB assay
- Type: functional
- test-conditions: PC-3, 48 h, read-out: GI
Express it in %; write the number only.

Ask: Please report the recorded inhibition of growth at 50 µM for Oc1cc(O)c2cc1C(CCc1ccccc1)c1cc(c(O)cc1O)C(CCc1ccccc1)c1cc(c(O)cc1O)C(CCc1ccccc1)c1cc(c(O)cc1O)C2CCc1ccccc1 (centres undefined) .
Reply: 5.4

Ask: Same for COC(=O)CN1C(=O)CN=C(c2ccccc2Cl)c2cc(Cl)ccc21
Reply: 12.8

Ask: Now the same for CCCCCCCCCCCC1c2cc(c(OCC(=O)NCCN(CCC(=O)NCCN)CCC(=O)NCCN)cc2OCC(=O)NCCN(CCC(=O)NCCN)CCC(=O)NCCN)C(CCCCCCCCCCC)c2cc(c(OCC(=O)NCCN(CCC(=O)NCCN)CCC(=O)NCCN)cc2OCC(=O)NCCN(CCC(=O)NCCN)CCC(=O)NCCN)C(CCCCCCCCCCC)c2cc(c(OCC(=O)NCCN(CCC(=O)NCCN)CCC(=O)NCCN)cc2OCC(=O)NCCN(CCC(=O)NCCN)CCC(=O)NCCN)C(CCCCCCCCCCC)c2cc1c(OCC(=O)NCCN(CCC(=O)NCCN)CCC(=O)NCCN)cc2OCC(=O)NCCN(CCC(=O)NCCN)CCC(=O)NCCN (centres undefined)
Reply: 38.5

Ask: Continue with COC(=O)CN1C(=O)CN=C(c2ccccc2F)c2cc(Cl)ccc21
Reply: 22.4

====

- System: HCT-15
- experimental-details: Anticancer activity against human HCT15 cells after 48 hrs by SRB assay
- Format: functional, cell-based

| compound | IC50 |
| --- | --- |
| NCCNC(=O)CCN(CCNC(=O)COc1cc(OCC(=O)NCCN(CCC(=O)NCCN)CCC(=O)NCCN)c2cc1C(CCc1ccccc1)c1cc(c(OCC(=O)NCCN(CCC(=O)NCCN)CCC(=O)NCCN)cc1OCC(=O)NCCN(CCC(=O)NCCN)CCC(=O)NCCN)C(CCc1ccccc1)c1cc(c(OCC(=O)NCCN(CCC(=O)NCCN)CCC(=O)NCCN)cc1OCC(=O)NCCN(CCC(=O)NCCN)CCC(=O)NCCN)C(CCc1ccccc1)c1cc(c(OCC(=O)NCCN(CCC(=O)NCCN)CCC(=O)NCCN)cc1OCC(=O)NCCN(CCC(=O)NCCN)CCC(=O)NCCN)C2CCc1ccccc1)CCC(=O)NCCN (centres undefined) | Active |
| CCCCCCCCCCCC1c2cc(c(OCC(=O)NCCN)cc2OCC(=O)NCCN)C(CCCCCCCCCCC)c2cc(c(OCC(=O)NCCN)cc2OCC(=O)NCCN)C(CCCCCCCCCCC)c2cc(c(OCC(=O)NCCN)cc2OCC(=O)NCCN)C(CCCCCCCCCCC)c2cc1c(OCC(=O)NCCN)cc2OCC(=O)NCCN (centres undefined) | Active |
| COC(=O)CN1C(=O)CN=C(c2ccccc2)c2cc(Cl)ccc21 | Active |
| COC(=O)CN1C(=O)CN=C(c2ccccc2Cl)c2cc(Cl)ccc21 | Active |

====

- System: K562
- experimental-details: Growth inhibition of human K562 cells at 50 uM after 48 hrs by SRB assay
- Type: functional
- test-conditions: K562, 48 h, read-out: GI
measured-property: inhibition of growth at 50 µM (%)
Respond with the bare value in %.

Ask: Looking for the measured inhibition of growth at 50 µM of NCCNC(=O)COc1cc(OCC(=O)NCCN)c2cc1C(CCc1ccccc1)c1cc(c(OCC(=O)NCCN)cc1OCC(=O)NCCN)C(CCc1ccccc1)c1cc(c(OCC(=O)NCCN)cc1OCC(=O)NCCN)C(CCc1ccccc1)c1cc(c(OCC(=O)NCCN)cc1OCC(=O)NCCN)C2CCc1ccccc1 (centres undefined) , can you help?
Reply: 35.3

Ask: Same thing, different molecule: COC(=O)CN1C(=O)CN=C(c2ccccc2Cl)c2cc(Cl)ccc21
Reply: 15.9

Ask: Try the molecule Oc1cc(O)c2cc1C(CCc1ccccc1)c1cc(c(O)cc1O)C(CCc1ccccc1)c1cc(c(O)cc1O)C(CCc1ccccc1)c1cc(c(O)cc1O)C2CCc1ccccc1 (centres undefined)
Reply: 60.8

Ask: Repeat for the following molecule: COC(=O)CN1C(=O)CN=C(c2ccccc2)c2cc(Cl)ccc21
Reply: 19.7
